system: MCF7; experiment: Cytotoxicity against human MCF7 cells by MTT assay; format: functional, cell-based
pIC50: −log10 of the molar value.

- compound: "CC(Cc1cc2c(cc1O)OCO2)C(C)C(=O)c1ccc2c(c1)OCO2 (stereo unspecified) [SAUCERNEOL G]"
  cmp: "="
  pIC50: 4.19
- compound: "C[C@@H]([C@H](C)[C@H](O)c1ccc2c(c1)OCO2)[C@H](O)c1ccc2c(c1)OCO2 [SAUCERNEOL I]"
  cmp: "<"
  pIC50: 4.00
- compound: "COc1ccc([C@H](O)[C@@H](C)Oc2ccc([C@H]3O[C@H](c4ccc5c(c4)OCO5)[C@H](C)[C@H]3C)cc2OC)cc1OC [SAUCERNEOL D]"
  cmp: "<"
  pIC50: 4.00
- compound: "COc1cc([C@H]2O[C@H](c3ccc4c(c3)OCO4)[C@H](C)[C@H]2C)ccc1O[C@H](C)[C@@H](O)c1ccc2c(c1)OCO2 [SAUCERNEOL F]"
  cmp: "<"
  pIC50: 4.00
- compound: "CC[C@@]1(O)C(=O)OCc2c1cc1n(c2=O)Cc2cc3ccccc3nc2-1 [CAMPTOTHECIN]"
  cmp: "="
  pIC50: 5.00
- compound: "CC(Cc1cc2c(cc1O)OCO2)[C@@H](C)[C@H](O)c1ccc2c(c1)OCO2 (single isomer, unassigned) [SAUCERNEOL H]"
  cmp: "="
  pIC50: 4.14
